# EXPERIMENTAL_SYSTEM: T1, hLAG-3-mFc融合蛋白 (human, UniProt P18627 23-450)
# T1 construct: range 1-450; no cleavage site is stated; also called hLAG-3-mFc重组蛋白; 人LAG-3-mFc重组蛋白; not shown: mouse Fc
# T1 sequence (looked up): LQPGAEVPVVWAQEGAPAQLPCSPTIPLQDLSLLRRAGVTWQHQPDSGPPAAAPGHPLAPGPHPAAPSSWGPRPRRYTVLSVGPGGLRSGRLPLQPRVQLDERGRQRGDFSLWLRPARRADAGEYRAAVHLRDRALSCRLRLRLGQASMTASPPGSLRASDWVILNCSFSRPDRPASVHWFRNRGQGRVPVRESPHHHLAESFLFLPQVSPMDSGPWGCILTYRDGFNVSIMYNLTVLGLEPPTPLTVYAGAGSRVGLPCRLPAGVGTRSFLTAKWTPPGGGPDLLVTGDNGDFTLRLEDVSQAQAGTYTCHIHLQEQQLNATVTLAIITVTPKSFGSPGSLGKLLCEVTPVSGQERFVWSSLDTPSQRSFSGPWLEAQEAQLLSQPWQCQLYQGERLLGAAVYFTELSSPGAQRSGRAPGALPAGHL
# ASSAY_EXPLANATION: BLI (ForteBio Octet QKe), antibody captured on AHC probe, hLAG-3-mFc 60 nM in solution, 1:1 fit
OBSERVED_PROPERTY: Kd (nM)
// note: answer is a bare numeric in nM

// query Which Kd is listed for ch4C8嵌合抗体 (antibody, human IgG4, V domains shown) VH: EVQLVESGGGLVKIGGSLKLSCAGSGFTFSNYAMSWVRQTPEKRLEWVATITYGTTYTFYSDNVKGRFTISRDNAKNNLSLQMSHLKSEDTAMYYCTRGEYGSSFAYWGQGTLVTVSA VL: DIVMTQSQKFMSTSVGDRVSITCKASQNVRTAVAWYQQKPGQSPKALIYLASNRHTGVPDRFTGSGSETDFTLTINNVQSEDLADYFCLQHWNYPLTFGGGTKLEIK ?
// result 0.427
